ADCC reporter assay, Max RLU, CHOK1/B7-H3 cells for assorted binders
Molecular target: T1, B7-H3 on CHO-K1 cells stably transfected with B7-H3 (GenScript #M00536) (UniProt Q5ZPR3 29-534, limits assumed)
T1 sequence (looked up): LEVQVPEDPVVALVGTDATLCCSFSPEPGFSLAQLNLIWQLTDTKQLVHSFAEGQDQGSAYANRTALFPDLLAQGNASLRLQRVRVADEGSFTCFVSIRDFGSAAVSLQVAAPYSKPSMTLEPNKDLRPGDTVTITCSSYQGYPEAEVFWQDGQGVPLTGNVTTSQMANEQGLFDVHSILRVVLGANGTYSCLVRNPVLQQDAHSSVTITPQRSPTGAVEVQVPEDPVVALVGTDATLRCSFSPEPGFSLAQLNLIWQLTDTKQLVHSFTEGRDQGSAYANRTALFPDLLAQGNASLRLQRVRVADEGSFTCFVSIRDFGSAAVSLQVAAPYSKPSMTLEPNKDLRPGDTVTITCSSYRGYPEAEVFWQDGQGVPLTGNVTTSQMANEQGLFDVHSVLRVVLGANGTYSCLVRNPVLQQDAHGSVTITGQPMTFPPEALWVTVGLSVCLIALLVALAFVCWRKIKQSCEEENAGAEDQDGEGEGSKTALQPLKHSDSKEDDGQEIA
Assay: cell-based or functional assay
Entry rule: numbers only, all in RLU.

Recorded ADCC reporter assay, Max RLU, CHOK1/B7-H3 cells, per entry:
binder	valueReported
40511p1.1.A1 IgG (antibody, V domains shown) VH: DVQLVESGGGVVRPGESLRLSCAASGFTFSNYAMNWVRQAPGEGLEWVSRINYKGYNITYYADSVKGRFTISRDNSKNTLYLQMNSLRAEDTAVYYCAKSGSNSNNFFDYWGLGTLVTVSS VL: EIVLTQSPGTLSVSPGERATLSCRASQSVNSKLAWYQQRPGQAPRLLIYDASSRATGIPDRFSGSGSGTDFTLTISRLEPEDFAVYYCQQYKNWPPLTFGGGTKVEIK	820000
40511p1.2.A4 IgG (antibody, V domains shown) VH: DVQLVESGGGVVRPGESLRLSCAASGFTFSSYAESWVRQAPGEGLEWVSIISGSGGNTFYADSVKGRFTISRDNSKNTLYLQMNSLRAEDTAVYYCARFAYGFFDYWGLGTLVTVSS VL: EIVLTQSPGTLSVSPGERATLSCRASQTVGSKLAWYQQKPGQAPRLLIYDASTRATDIPDRFSGSGSGTDFTLTISSLQSEDFAVYYCQQYRNWPPLTFGGGTKVEIK	548000
40579p1.H7 IgG (antibody, V domains shown) VH: EVQLLESGGDLVQPGGSLRLSCAASGFNFSSYWMSWVRQAPGKGLEWVSGISISYGGNAYYADSVKGRFTVSRDNSKNTLYLQMNSLRAEDTAVYYCGRDRSPYQYRSMDVWGQGTTVTVSS VL: EIVLTQSPGTLSLSPGERATLSCRASQSIRSDLAWYQQKPGQAPRLLIYGASSRATGIPARFSGSGSGTEFTLTISSLQSEDFAVYYCQQYNNWPPLTFGGGTKVEIK	833000
40633p1.1.G11 IgG (antibody, V domains shown) VH: EVQLLESGGGLVQPGGSLRLSCAASGFTVSYYGMSWVRQAPGKGLEWVSVIKQDGSEEYYADSVKGRFTISRDNSKNTLYLQMNSPRAEDTAVYYCARHWNDYSNGMNVWGQGTTVTVSS VL: QSVLTQPPSASGTPGQRVTISCSGSTSNVGDRYVYWYQQLPGTAPKLLIYLDDQRPSGVPDRFSGSKSGTSASLAISGLQSEDEADYYCASWDASLNGWVFGGGTKLTVL	725000

Inquiry: Given the binder 40579p1.G1 IgG (antibody, V domains shown) VH: EVQLLESGGGLVQPGGSLRLSCAASGFNFSSYWMSWVRQAPGKGLEWVSGISISYGGNAYYADSVKGRFTVSRDNSKNTLYLQMNSLRAEDTAVYYCGRDRSPYQYRSMDVWGQGTTVTVSS VL: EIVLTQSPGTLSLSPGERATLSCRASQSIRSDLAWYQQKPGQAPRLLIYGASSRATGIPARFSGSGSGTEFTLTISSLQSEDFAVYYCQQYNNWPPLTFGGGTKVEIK , write its reported ADCC reporter assay, Max RLU, CHOK1/B7-H3 cells.
Reply text: 806000

Inquiry: For the binder 40633p1.1.G5 IgG (antibody, V domains shown) VH: EVQLLESGGGLVQPGGSLRLSCAASGFIVNYYGMSWVRQPPGKGLEWVSAIKQDGSEKYYADSVKGRFTISRDNSKTTLYLQMNSLRAEDTAVYYCARHWNDYSNGMNVWGQGTTVTVSS VL: QSVLTQPPSASGTPGQRVTISCSGSWSNIGSYNSHWYQKLPGTAPKLLIYTTDRRPSGVPDRFSGSKSGTSASLAISGLQSEDEADYYCGTWDDSLNVWVFGGGTKLTVL , report ADCC reporter assay, Max RLU, CHOK1/B7-H3 cells.
Reply text: 452000

Inquiry: Please report the measured ADCC reporter assay, Max RLU, CHOK1/B7-H3 cells for 40579p1.C2 IgG (antibody, V domains shown) VH: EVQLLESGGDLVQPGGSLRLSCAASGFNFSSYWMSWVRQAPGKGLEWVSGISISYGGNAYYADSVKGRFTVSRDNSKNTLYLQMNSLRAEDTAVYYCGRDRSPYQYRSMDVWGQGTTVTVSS VL: EIVLTQSPATLSVSPGERATFSCRASQTIGNKLAWYQQKPGQAPRLLIFSASTRATDIPDRFSGSGSGTDFTLTISSLQSEDFAVYYCQQYNNWPPLTFGGGTKVEIK
Reply text: 843000
